test system: human IgG antibodies; assay: In vitro inhibition of human IgG antibody production (lymphocytes + IL-4 + anti CD40Ab + IL-10, ELISA); format: cell-based; conditions: Lymphocyte, 3 μM
Field: inhibition at 3 µM. Provide a value for each of the compounds that follow.
Number only, in %; omit the unit.

inhibition at 3 µM lookup needed for O=C(Cc1ccc(Oc2ccc3ccccc3c2)cc1)Nc1ccccc1C(=O)O [Compound No. 1126] , thanks.
35.4

inhibition at 3 µM lookup needed for O=C(Cc1ccc(Oc2ccc3cc(OCc4ccc5ccccc5c4)ccc3c2)cc1)Nc1ccccc1C(=O)O [compound 1228] , thanks.
42.4

inhibition at 3 µM lookup needed for O=C(Cc1ccc(Oc2ccc3cc(O)ccc3c2)cc1)Nc1ccccc1C(=O)O [Compound No. 1208] , thanks.
-8.4

inhibition at 3 µM lookup needed for O=C(Nc1ccccc1C(=O)O)c1ccc(Oc2ccc3cc(O)ccc3c2)cc1 [Compound No. 1202] , thanks.
-8.7

inhibition at 3 µM lookup needed for O=C(Nc1ccccc1C(=O)O)c1ccc(Oc2cccc3ccccc23)cc1 [compound 1111] , thanks.
20

inhibition at 3 µM lookup needed for O=C(Cc1ccc(COc2ccc3ccccc3c2)cc1)Nc1ccccc1C(=O)O [compound 5104] , thanks.
1.6

inhibition at 3 µM lookup needed for C=CCOc1ccc2cc(Oc3ccc(CC(=O)Nc4ccccc4C(=O)O)cc3)ccc2c1 [compound 1218] , thanks.
47.8

inhibition at 3 µM lookup needed for O=C(Nc1ccccc1)c1ccc(Oc2ccc3ccccc3c2)cc1 [Compound No. 1105, N-phenyl-4-(2-naphtyloxy)benzamide] , thanks.
-6.4

These entries and their values trace back to patent US5945450A.
